Molecular target: β-secretase(BACE) (Homo sapiens, UniProt P56817)
Construct: purchased Panvera
Sequence (P56817 46-501): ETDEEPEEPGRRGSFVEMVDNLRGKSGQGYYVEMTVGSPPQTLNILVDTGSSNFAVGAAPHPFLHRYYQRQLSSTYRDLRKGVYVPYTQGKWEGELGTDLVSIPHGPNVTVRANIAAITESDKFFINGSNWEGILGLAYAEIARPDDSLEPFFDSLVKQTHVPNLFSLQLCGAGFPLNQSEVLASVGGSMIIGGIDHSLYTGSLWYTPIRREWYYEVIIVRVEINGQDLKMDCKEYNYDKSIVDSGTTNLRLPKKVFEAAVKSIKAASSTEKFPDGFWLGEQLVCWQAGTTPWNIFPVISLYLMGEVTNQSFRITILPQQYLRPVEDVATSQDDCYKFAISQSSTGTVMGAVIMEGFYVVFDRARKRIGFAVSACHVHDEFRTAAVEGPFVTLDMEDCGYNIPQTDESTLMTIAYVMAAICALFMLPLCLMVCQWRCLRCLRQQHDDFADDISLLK
Assay: BACE FS1% Inhibition Assay
Assay type: biochemical
Settings: 3 μM test compound; FS1 substrate
Protocol: BACE FS1% Inhibition Assay The following reagents were used in this assay: sodium acetate, PEG8000 (Sigma), DMSO, HEPES, FS1 substrate [[…]] […] The FS1-substrate stock solution was prepared in DMSO as a 10 mg/mL solution. The FS1-substrate working solution was prepared by diluting the 10 mg/mL stock solution with substrate assay buffer to a final concentration of 300 μg/mL. […] For test compounds, % inhibition was determined at each concentration as follows: [formula]
Hi there, I'd appreciate the recorded % Inhibition (FS) for every entry that follows.
Kindly answer with a numeric value in %, unit omitted.

Reported % Inhibition (FS), compound COC1CCCC(C(=O)NCCN2Cc3cc(-c4ccccc4)ccc3N=C2N)C1 (centres unmarked) : ____
83

Value lookup for % Inhibition (FS); key = `CN(C(=O)CC[C@@H](C1CCCCC1)N1Cc2cc(Oc3ccccc3)ccc2N=C1N)C1CCC(=O)CC1`
113

Endpoint output: % Inhibition (FS) of CN(C(=O)CCC(C1CCCCC1)N1Cc2cc(Oc3ccccc3)ccc2N=C1N)C(COCc1ccccc1)C(=O)O (centres unmarked) . Value?
121

So what's the measured % Inhibition (FS) for this one? `NC1=Nc2ccc(-c3ccccc3F)cc2CN1CCNC(=O)CCC(F)(F)F`
90

Would you mind telling me what % Inhibition (FS) value was observed for `CC(C)N1CCC(N(C)C(=O)CC[C@@H](C2CCCCC2)N2Cc3cc(Oc4ccccc4)ccc3N=C2N)CC1` ?
97

Any idea what its % Inhibition (FS) is? The compound is `COc1ccccc1-c1ccc2c(c1)CN([C@@H](CCC(=O)N(C)Cc1csc(-c3ccccc3)n1)C1CCCCC1)C(N)=N2`
72

% Inhibition (FS) lookup needed for `COc1ccccc1-c1ccc2c(c1)CN([C@@H](CCC(=O)N(C)Cc1cc(-c3ccccc3)on1)C1CCCCC1)C(N)=N2` , thanks.
81

Consider the compound CN(CC(=O)O)C(=O)CCC(C1CCCCC1)N1Cc2cc(Oc3ccccc3)ccc2N=C1N (centres unmarked) and give its measured % Inhibition (FS).
106

GET /values?readout=% Inhibition (FS)&item= CN(C(=O)CCC(C1CCCCC1)N1Cc2cc(Oc3ccccc3)ccc2N=C1N)C1CCC(C(=O)OCc2ccccc2)CC1 (centres unmarked)
89

# query: % Inhibition (FS) of entry COC1CCCC(C(=O)NCCN2Cc3cc(-c4ccccc4C)ccc3N=C2N)C1 (centres unmarked)
104

% Inhibition (FS) for COC(=O)C1CCCC(N(C)C(=O)CCC(C2CCCCC2)N2Cc3cc(Oc4ccccc4)ccc3N=C2N)C1 (mixture of isomers) ?
123

May I ask what % Inhibition (FS) has been recorded for `COc1ccccc1-c1ccc2c(c1)CN([C@@H](CCC(=O)N(C)Cc1cc(C)no1)C1CCCCC1)C(N)=N2` ?
114

Fill blank: measured % Inhibition (FS) of the compound `COC(=O)[C@H]1CC[C@H](NC(=O)CC[C@@H](C2CCOCC2)N2Cc3cc(Oc4ccccc4)ccc3N=C2N)CC1` is ____.
104

Looking for the measured % Inhibition (FS) of `COc1ccccc1-c1ccc2c(c1)CN(CCNC(=O)C1CCOCC1)C(N)=N2` , can you help?
63

Which % Inhibition (FS) value is on record for COC(=O)C(COCc1ccccc1)N(C)C(=O)CCC(C1CCCCC1)N1Cc2cc(Oc3ccccc3)ccc2N=C1N (centres unmarked) ?
109

For the compound shown here, CC(CC(=O)NCCN1Cc2cc(-c3ccccc3)ccc2N=C1N)C(F)(F)F (centres unmarked) , give the reported % Inhibition (FS).
101

Which value of % Inhibition (FS) has been reported for NC1=Nc2ccc(-c3ccccc3Cl)cc2CN1CCNC(=O)C1CCC(C(F)(F)F)CC1 (centres unmarked) in the records?
52

Find the recorded % Inhibition (FS) belonging to `CN(C(=O)CCC(C)(C)N1Cc2cc(Oc3ccccc3)ccc2N=C1N)C1CCCCC1` and report it.
61

Reported % Inhibition (FS) for `CN(C(=O)CC[C@@H](C1CCCCC1)N1Cc2cc(Oc3ccccc3)ccc2N=C1N)C1CCC2(CC1)OCCO2` : what is it?
126

May I ask what % Inhibition (FS) has been recorded for `CN(CCCCC(=O)O)C(=O)CC[C@@H](C1CCCCC1)N1Cc2cc(Oc3ccccc3)ccc2N=C1N` ?
109

So what's the measured % Inhibition (FS) for this one? CC(CC(=O)NCCN1Cc2cc(-c3ccccc3Cl)ccc2N=C1N)C(F)(F)F (centres unmarked)
102

Need % Inhibition (FS) of `CN(Cc1csc(-c2ccccc2)n1)C(=O)CC[C@@H](C1CCCCC1)N1Cc2cc(-c3ccccc3F)ccc2N=C1N` , thanks.
78

Would you mind telling me what % Inhibition (FS) value was observed for NC1=Nc2ccc(-c3ccccc3F)cc2CN1CCNC(=O)C1CCC(C(F)(F)F)CC1 (centres unmarked) ?
81

Fill blank: measured % Inhibition (FS) of the compound COC(=O)Cc1cccc(CN(C)C(=O)CCC(C2CCCCC2)N2Cc3cc(Oc4ccccc4)ccc3N=C2N)c1 (centres unmarked) is ____.
111

# % Inhibition (FS) lookup, item `NC1=Nc2ccc(-c3ccc4ccccc4c3)cc2CN1CCNC(=O)CCC(F)(F)F`
80

# query: % Inhibition (FS) of entry CN(C(=O)CCC(C1CCCCC1)N1Cc2cc(Oc3ccccc3)ccc2N=C1N)C1CCC(C#N)CC1 (centres unmarked)
107

---

Molecular target: β-secretase(BACE) (Homo sapiens)
Construct: purchased Panvera
Assay: BACE FS1% Inhibition Assay
Type: biochemical
Details: 1 μM test compound; FS1 substrate
So I've got a bunch of molecules here, and I need their % Inhibition (FS) 1 μM values.

Param item = CCCCC(CC)CN(CC(CC)CCCC)C(=O)c1cccc(CN2Cc3cc(Oc4ccccc4)ccc3N=C2N)c1 (centres unmarked) [Compound 198] ; retrieve measured % Inhibition (FS) 1 μM.
<30%

Which % Inhibition (FS) 1 μM value belongs to CCCC=Cc1ccc2c(c1)CN(CCNC(=O)Cc1ccccc1)C(N)=N2 [Compound 596] ?
<30%

Record request: % Inhibition (FS) 1 μM value, item Cc1cccc(C)c1Oc1ccc2c(c1)CN(Cc1cccc(C(=O)N(C)C3CCCCC3)c1)C(N)=N2 [Compound 475]
<30%

# input molecule: CC(C)CC(=O)NCCN1Cc2cc(Oc3ccccc3)ccc2N=C1N [Compound 190] ; wanted: its % Inhibition (FS) 1 μM
86%

Recorded % Inhibition (FS) 1 μM for NC1=Nc2ccc(-c3cccc(C(F)(F)F)c3)cc2CN1CCNC(=O)CC1CCCC1 [Compound 584] , please?
<30%

% Inhibition (FS) 1 μM for CC(C)(C)C1CCC(C(=O)NCCN2Cc3cc(Oc4ccccc4)ccc3N=C2N)CC1 (centres unmarked) [Compound 184] ?
<30%

Form field: reported % Inhibition (FS) 1 μM of CCCC=Cc1ccc2c(c1)CN(CCNC(=O)C(C)(C)C)C(N)=N2 [Compound 574]
<30%

Consider the molecule shown here: CC(C)c1ccccc1Oc1ccc2c(c1)CN(C(CC(=O)NC1CCCCC1)C1CCCCC1)C(N)=N2 (centres unmarked) [Compound 313] What is its recorded % Inhibition (FS) 1 μM?
<30%

Look at this molecule and give its reported % Inhibition (FS) 1 μM. CC(C)(C)OC(=O)NCC(C1CCCCC1)N1Cc2cc(Oc3ccccc3)ccc2N=C1N (centres unmarked) [Compound 257]
105%

Which measured % Inhibition (FS) 1 μM value corresponds to CN(C(=O)c1ccccc1CN1Cc2cc(Oc3ccccc3)ccc2N=C1N)C1CCCCC1 [Compound 463] ?
<30%

% Inhibition (FS) 1 μM lookup needed for NC1=Nc2ccc(Oc3ccccc3)cc2CN1CCCNC1CCCCC1 [Compound 403] , thanks.
<30%

// % Inhibition (FS) 1 μM lookup, key: NC1=Nc2ccc(-c3ccncc3)cc2CN1CCNC(=O)C1CCCCC1 [Compound 576]
<30%

Quick one: % Inhibition (FS) 1 μM for NC1=Nc2ccc(Oc3ccccc3)cc2CN1C(CCCC(=O)N1CCCCC1)CCC(=O)N1CCCCC1 (centres unmarked) [Compound 452] ?
42%

Item under review: CCCC(=O)NCCN1Cc2cc(-c3ccncc3)ccc2N=C1N [Compound 570] . Reported % Inhibition (FS) 1 μM?
<30%

Which % Inhibition (FS) 1 μM value belongs to CCCC(CCC)C(=O)N1CCCC(N2Cc3cc(Oc4ccccc4)ccc3N=C2N)C1 (centres unmarked) [Compound 612] ?
34%

Returns the measured % Inhibition (FS) 1 μM for the input molecule. Input: COc1ccc(C)cc1Oc1ccc2c(c1)CN(Cc1cccc(C(=O)N(C)C3CCCCC3)c1)C(N)=N2 [Compound 467]
<30%

For the molecule CN(C(=O)c1cccc(CN2Cc3cc(Oc4cccnc4)ccc3N=C2N)c1)C1CCCCC1 [Compound 230] , what % Inhibition (FS) 1 μM is on record?
33%

Param item = CN(C(=O)c1cccc(CN2Cc3cc(Oc4ccccc4S(C)(=O)=O)ccc3N=C2N)c1)C1CCCCC1 [Compound 472] ; retrieve measured % Inhibition (FS) 1 μM.
<30%

Returns the measured % Inhibition (FS) 1 μM for the input molecule. Input: CCCCCC1CC2(C(=O)NCCN3Cc4cc(Oc5ccccc5)ccc4N=C3N)CCC1CC2 (centres unmarked) [Compound 194]
42%

Name the reported % Inhibition (FS) 1 μM value associated with the molecule CC(=O)Nc1cccc(Oc2ccc3c(c2)CN(Cc2cccc(C(=O)N(C)C4CCCCC4)c2)C(N)=N3)c1 [Compound 229]
35%

Quick one: % Inhibition (FS) 1 μM of CN(C(=O)CC(C1CCCCC1)N1Cc2cc(Oc3ccccc3)ccc2N=C1N)C1CCCCC1 (centres unmarked) [Compound 199] ?
<30%

For the molecule shown here, CCCCCCCCC(CCC(=O)NC1CCCCCC1)N1Cc2cc(Oc3ccccc3)ccc2N=C1N (centres unmarked) [Compound 208] , give the reported % Inhibition (FS) 1 μM.
<30%

Need % Inhibition (FS) 1 μM, item CCCC(CCCC(=O)N(CC)C1CCCCC1)N1Cc2cc(Oc3ccccc3)ccc2N=C1N (centres unmarked) [Compound 105]
<30%

Requested read-out: % Inhibition (FS) 1 μM. Entry: CCCCC(CC)C(=O)NCCN1Cc2cc(-c3ccccc3F)ccc2N=C1N (centres unmarked) [Compound 648]
74%

// query % Inhibition (FS) 1 μM value for entry COc1cccc(Nc2ccc3c(c2)CN(Cc2cccc(C(=O)N(C)C4CCCCC4)c2)C(N)=N3)c1 [Compound 433]
33%

What value of % Inhibition (FS) 1 μM has been reported for the following molecule? CN(C(=O)c1cccc(CN2Cc3cc([S+]([O-])c4ccccc4)ccc3N=C2N)c1)C1CCCCC1 (centres unmarked) [Compound 549]
30%

// % Inhibition (FS) 1 μM lookup, key: NC1=Nc2ccc(Oc3ccccc3)cc2CN1C(CC(=O)NC1C2CC3CC(C2)CC1C3)C1CCCCC1 (centres unmarked) [Compound 314]
45%

% Inhibition (FS) 1 μM lookup needed for CC(C)COc1ccc2c(c1)CN(Cc1cccc(C(=O)N(C)C3CCCCC3)c1)C(N)=N2 [Compound 518] , thanks.
<30%

Quick check: % Inhibition (FS) 1 μM of CC(=O)c1ccccc1-c1ccc2c(c1)CN(Cc1cccc(C(=O)N(C)C3CCCCC3)c1)C(N)=N2 [Compound 323] ?
<30%

I would be grateful if you could share the reported % Inhibition (FS) 1 μM for NC1=Nc2ccc(Oc3ccccc3)cc2CN1Cc1ocnc1C(=O)NC1CCCCC1 [Compound 640] .
<30%

Data request, read-out % Inhibition (FS) 1 μM, for CC(C)C(CC(=O)N(C(C)C)C1CCCCC1)N1Cc2cc(Oc3ccccc3)ccc2N=C1N (centres unmarked) [Compound 202]
<30%

Quick one: % Inhibition (FS) 1 μM for CC1CCC(NC(=O)c2cccc(CN3Cc4cc(Oc5ccccc5)ccc4N=C3N)c2)CC1 (centres unmarked) [Compound 213] ?
<30%
